Hi there, I'd appreciate the recorded IC50 for every entry that follows.
target: K-Ras G12C (Homo sapiens (Human), UniProt P01116+P62937, G12C); assay: Ras-Raf (BRAF RBD) disruption / FRET / MOA assay, KRAS G12C; assay type: biochemical; details: KRAS G12C; Ras-Raf disruption/FRET/MOA assay; read-out: IC50* KRAS G12C FRET data
Sequence (P01116-2 other isoform, or with tags, fused parts or gaps G12C): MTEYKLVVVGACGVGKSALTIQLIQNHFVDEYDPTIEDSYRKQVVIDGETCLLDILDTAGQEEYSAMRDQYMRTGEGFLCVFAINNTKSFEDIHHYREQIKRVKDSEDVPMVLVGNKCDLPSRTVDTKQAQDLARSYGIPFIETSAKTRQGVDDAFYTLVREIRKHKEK
Sequence (P62937 whole entry): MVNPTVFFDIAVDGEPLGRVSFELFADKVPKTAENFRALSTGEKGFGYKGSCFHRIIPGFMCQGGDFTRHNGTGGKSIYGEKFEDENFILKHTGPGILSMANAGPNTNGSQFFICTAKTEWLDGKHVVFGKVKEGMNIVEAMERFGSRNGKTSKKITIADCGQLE

Please review the following examples before continuing.
compound	assayReadout	valueReported
CCn1c(-c2cccnc2[C@H](C)OC)c2c3cc(ccc31)N1CCC[C@@H](C[C@H](NC(=O)[C@H](C(C)C)N(C)C(=O)C3(F)CCN(C(=O)C#CC(C)(C)N(C)C)CC3)C(=O)N3CCC[C@H](N3)C(=O)OCC(C)(C)C2)C1 (atropisomer, axis not shown)	IC50	10 to 100 nM
C=CC(=O)N1CC[C@H](C(=O)N(C)[C@H](C(=O)N[C@H]2Cc3cc(ccn3)-c3ccc4c(c3)c(c(-c3cccnc3COC)n4CC)CC(C)(C)COC(=O)[C@@H]3CCCN(N3)C2=O)C(C)C)C1	IC50	1000 to 10000 nM
CCn1c(-c2cccnc2[C@H](C)OC)c2c3cc(ccc31)-c1csc(n1)C[C@H](NC(=O)[C@@H](COC1CN(C(=O)C#CC(C)(C)N(C)C)C1)OC)C(=O)N1CCC[C@H](N1)C(=O)OCC(C)(C)C2 (atropisomer, axis not shown)	IC50	< 10 nM
C=CC(=O)N1CCCN(C(=O)N(C)[C@H](C(=O)N[C@H]2Cc3nc(cs3)-c3ccc4c(c3)c(c(-c3cccnc3[C@H](C)OC)n4CC)CC(C)(C)COC(=O)[C@@H]3CCCN(N3)C2=O)C(C)C)CC1 (atropisomer, axis not shown)	IC50	10 to 100 nM

Okay, here is my list. What is IC50 for each of these?
1. C=CC(=O)N1CC[C@H](C(=O)N(C)[C@H](C(=O)N[C@H]2Cc3cccc(c3)-c3ccc4c(c3)c(c(-c3cc(C5CN(C)C5)cnc3[C@H](C)OC)n4CC)CC(C)(C)COC(=O)[C@@H]3CCCN(N3)C2=O)C(C)C)C1 (atropisomer, axis not shown)
2. CCn1c(-c2cccnc2[C@H](C)OC)c2c3cc(ccc31)-c1cc(CF)cc(c1)C[C@H](NC(=O)[C@H](C(C)C)N(C)C(=O)[C@H]1CCN(C(=O)C#CC(C)(C)N(C)C)C1)C(=O)N1CCC[C@H](N1)C(=O)OCC(C)(C)C2 (atropisomer, axis not shown)
3. CCn1c(-c2cccnc2[C@H](C)OC)c2c3cc(ccc31)N1CCO[C@@H](C[C@H](NC(=O)[C@H](C(C)C)N(C)C(=O)C3(F)CCN(C(=O)C#CC(C)(C)N(C)C)CC3)C(=O)N3CCC[C@H](N3)C(=O)OCC(C)(C)C2)C1 (atropisomer, axis not shown)

1: 100 to 1000 nM; 2: < 10 nM; 3: < 10 nM

The reported IC50 of the compound CCn1c(-c2cccnc2[C@H](C)OC)c2c3cc(ccc31)-c1csc(n1)C[C@H](NC(=O)[C@H](C(C)C)N(C)C(=O)N1CCN(C(=O)/C=C/CN(C)C)C3(CC3)C1)C(=O)N1CCC[C@H](N1)C(=O)OCC(C)(C)C2 (atropisomer, axis not shown) was 10 to 100 nM

* * *

Molecular target: KRAS G12D (Homo sapiens (Human), UniProt P01116+P62937, G12D)
Sequence (P01116-2 other isoform, or with tags, fused parts or gaps G12D, one chain of several): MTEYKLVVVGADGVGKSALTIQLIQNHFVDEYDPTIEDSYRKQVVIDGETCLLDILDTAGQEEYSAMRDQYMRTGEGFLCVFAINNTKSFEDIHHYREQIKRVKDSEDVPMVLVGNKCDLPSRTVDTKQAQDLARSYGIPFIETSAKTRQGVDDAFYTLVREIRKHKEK
Assay: Ras-Raf (BRAF RBD) disruption / FRET / MOA assay, KRAS G12D
Type: biochemical
Settings: Ras-Raf disruption/FRET/MOA assay; class symbols; read-out: KRAS G12D FRET data IC50
Protocol: The purpose of this biochemical assay is to measure the ability of test compounds to facilitate ternary complex formation between a nucleotide-loaded Ras isoform and cyclophilin A; the resulting ternary complex disrupts binding to a BRAF^RBD construct, inhibiting Ras signaling through a RAF effector. Compound is present in plate wells as a 10-point 3-fold dilution series starting at a final concentration of 30 μM. […]
pIC50: −log10 of the molar value.
assayReadout: pIC50

Okay, here is my list. What is pIC50 for each of these?
1. C=CC(=O)N1CC[C@H](C(=O)N(C)[C@H](C(=O)N[C@H]2Cc3cc(N)cc(c3)-c3ccc4c(c3)c(c(-c3ccccc3COC)n4CC)CC(C)(C)COC(=O)[C@@H]3CCCN(N3)C2=O)C(C)C)C1
2. C=CC(=O)N1CC[C@]2(C1)OCN([C@H](C(=O)N[C@H]1Cc3cccc(n3)-c3ccc4c(c3)c(c(-c3cccnc3[C@H](C)OC)n4CC)CC(C)(C)COC(=O)[C@@H]3CCCN(N3)C1=O)C(C)C)C2=O (atropisomer, axis not shown)

1: < 5.00; 2: < 5.00

* * *

Hi there, I'd appreciate the recorded IC50 for every entry that follows.
target: K-Ras G13C (Homo sapiens (Human), UniProt P01116+P62937, G13C); assay: Ras-Raf (BRAF RBD) disruption / FRET / MOA assay, KRAS G13C; type: biochemical; settings: KRAS G13C; Ras-Raf disruption/FRET/MOA assay; read-out: IC50* KRAS G13C FRET data
Sequence (P01116-2 other isoform, or with tags, fused parts or gaps G13C, one chain of several): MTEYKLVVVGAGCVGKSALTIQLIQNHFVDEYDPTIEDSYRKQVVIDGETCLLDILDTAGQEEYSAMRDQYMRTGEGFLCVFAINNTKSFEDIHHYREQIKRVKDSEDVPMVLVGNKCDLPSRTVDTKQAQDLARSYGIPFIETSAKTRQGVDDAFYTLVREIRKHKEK

Please review the following examples before continuing.
compound	assayReadout	valueReported
C=CC(=O)N1CC[C@H](C(=O)N(C)[C@H](C(=O)N[C@H]2Cc3cccc(c3)-c3ccc4c(c3)c(c(-c3cccnc3[C@H](C)OC)n4CC#N)CC(C)(C)COC(=O)[C@@H]3CCCN(N3)C2=O)C(C)C)C1	IC50	100 to 1000 nM
CCn1c(-c2cccnc2[C@H](C)OC)c2c3cc(ccc31)-c1cccc(c1)C[C@H](NC(=O)[C@H](C(C)C)N(C)C(=O)[C@H]1CCN(C(=O)C#CC3CCO3)C1)C(=O)N1CCC[C@H](N1)C(=O)OCC(C)(C)C2 (mixture of isomers)	IC50	100 to 1000 nM
CCn1c(-c2cccnc2[C@H](C)OC)c2c3cc(ccc31)-c1csc(n1)C[C@H](NC(=O)[C@H](C(C)C)N(C)C(=O)N(C)C1CN(C(=O)/C=C/C3CN(C)C3)C1)C(=O)N1CCC[C@H](N1)C(=O)OCC(C)(C)C2 (atropisomer, axis not shown)	IC50	100 to 1000 nM
CCn1c(-c2cccnc2[C@H](C)OC)c2c3cc(ccc31)-c1csc(n1)C[C@H](NC(=O)[C@H](C(C)C)N(C)C(=O)N1CCC3(CC1)CN(C(=O)/C=C/CF)C3)C(=O)N1CCC[C@H](N1)C(=O)OCC(C)(C)C2 (atropisomer, axis not shown)	IC50	10 to 100 nM
C=CC(=O)N1CCC2(CC1)CN(C(=O)N(C)[C@H](C(=O)N[C@H]1Cc3nc(cs3)-c3ccc4c(c3)c(c(-c3cccnc3[C@H](C)OC)n4CC)CC(C)(C)COC(=O)[C@@H]3CCCN(N3)C1=O)C(C)C)C2 (atropisomer, axis not shown)	IC50	100 to 1000 nM
CCn1c(-c2cccnc2[C@H](C)OC)c2c3cc(ccc31)-c1cccc(c1)CC(NC(=O)[C@H](C(C)C)N1CC[C@]3(CCN(C(=O)C#C[C@@H]4COCCN4C4COC4)C3)C1=O)C(=O)N1CCC[C@H](N1)C(=O)OCC(C)(C)C2 (stereo partly drawn)	IC50	1000 to 10000 nM
C=CC(=O)N1CC[C@H](C(=O)N(C)[C@H](C(=O)N[C@H]2Cc3cccc(c3)-c3ccc4c(c3)c(c(-c3cc(CN(C)C)cnc3[C@H](C)OC)n4CC)CC(C)(C)COC(=O)[C@@H]3CCCN(N3)C2=O)C(C)C)C1 (atropisomer, axis not shown) [Example A522]	IC50	1000 to 10000 nM
CCn1c(-c2cccnc2[C@H](C)OC)c2c3cc(ccc31)-c1cccc(c1)C[C@H](NC(=O)[C@@H](COC1CN(C(=O)C#CC(C)(C)N(C)C(C)C)C1)C(C)C)C(=O)N1CCC[C@H](N1)C(=O)OCC(C)(C)C2 (atropisomer, axis not shown)	IC50	1000 to 10000 nM

Okay, here is my list. What is IC50 for each of these?
1. C=CC(=O)N1CC[C@H](C(=O)N(C)[C@H](C(=O)N[C@H]2Cc3cc(O)cc(c3)-c3ccc4c(c3)c(c(-c3ccccc3CCN3CCCC3)n4CC)CC(C)(C)COC(=O)[C@@H]3CCCN(N3)C2=O)C(C)C)C1
2. C=CC(=O)N(C)[C@H]1CCN(C(=O)N(C)[C@H](C(=O)N[C@H]2Cc3nc(cs3)-c3ccc4c(c3)c(c(-c3cccnc3[C@H](C)OC)n4CC)CC(C)(C)COC(=O)[C@@H]3CCCN(N3)C2=O)C(C)C)C1 (atropisomer, axis not shown)
3. C=CC(=O)N1CCO[C@@H]2CCN(C(=O)N(C)[C@H](C(=O)N[C@H]3Cc4nc(cs4)-c4ccc5c(c4)c(c(-c4cccnc4[C@H](C)OC)n5CC)CC(C)(C)COC(=O)[C@@H]4CCCN(N4)C3=O)C(C)C)CC21 (stereo partly drawn)
4. C=CC(=O)N1C[C@H](C)N(C(=O)N(C)[C@H](C(=O)N[C@H]2Cc3nc(cs3)-c3ccc4c(c3)c(c(-c3cccnc3[C@H](C)OC)n4CC)CC(C)(C)COC(=O)[C@@H]3CCCN(N3)C2=O)C(C)C)C[C@H]1C (atropisomer, axis not shown)

> 10000 nM
100 to 1000 nM
100 to 1000 nM
100 to 1000 nM

Okay, here is my list. What is IC50 for each of these?
1. CCn1c(-c2cccnc2[C@H](C)OC)c2c3cc(ccc31)-c1cccc(c1)C[C@H](NC(=O)[C@H](C(C)C)N1CC[C@@]3(CCN(C(=O)C#C[C@@H]4COCCN4C4COC4)C3)C1=O)C(=O)N1CCC[C@H](N1)C(=O)OCC(C)(C)C2
2. C=CC(=O)N1CCOC2(CCN(C(=O)N(C)[C@H](C(=O)N[C@H]3Cc4cccc(n4)-c4ccc5c(c4)c(c(-c4cccnc4[C@H](C)OC)n5CC(F)(F)F)CC(C)(C)COC(=O)[C@@H]4CCCN(N4)C3=O)C(C)C)CC2)C1 (atropisomer, axis not shown)
3. C=CC(=O)N1CC2(CCN2C(=O)N(C)[C@H](C(=O)N[C@H]2Cc3nc(cs3)-c3ccc4c(c3)c(c(-c3cccnc3[C@H](C)OC)n4CC)CC(C)(C)COC(=O)[C@@H]3CCCN(N3)C2=O)C(C)C)C1 (atropisomer, axis not shown)

100 to 1000 nM
10 to 100 nM
100 to 1000 nM
